src = paper PMC4336329

Molecular target: human ether-à-go-go-related gene (hERG) potassium channel (human, UniProt Q12809);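 also: peak tail current of the secondary pulse compared with the same well before compound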
Sequence (Q12809 whole entry, looked up): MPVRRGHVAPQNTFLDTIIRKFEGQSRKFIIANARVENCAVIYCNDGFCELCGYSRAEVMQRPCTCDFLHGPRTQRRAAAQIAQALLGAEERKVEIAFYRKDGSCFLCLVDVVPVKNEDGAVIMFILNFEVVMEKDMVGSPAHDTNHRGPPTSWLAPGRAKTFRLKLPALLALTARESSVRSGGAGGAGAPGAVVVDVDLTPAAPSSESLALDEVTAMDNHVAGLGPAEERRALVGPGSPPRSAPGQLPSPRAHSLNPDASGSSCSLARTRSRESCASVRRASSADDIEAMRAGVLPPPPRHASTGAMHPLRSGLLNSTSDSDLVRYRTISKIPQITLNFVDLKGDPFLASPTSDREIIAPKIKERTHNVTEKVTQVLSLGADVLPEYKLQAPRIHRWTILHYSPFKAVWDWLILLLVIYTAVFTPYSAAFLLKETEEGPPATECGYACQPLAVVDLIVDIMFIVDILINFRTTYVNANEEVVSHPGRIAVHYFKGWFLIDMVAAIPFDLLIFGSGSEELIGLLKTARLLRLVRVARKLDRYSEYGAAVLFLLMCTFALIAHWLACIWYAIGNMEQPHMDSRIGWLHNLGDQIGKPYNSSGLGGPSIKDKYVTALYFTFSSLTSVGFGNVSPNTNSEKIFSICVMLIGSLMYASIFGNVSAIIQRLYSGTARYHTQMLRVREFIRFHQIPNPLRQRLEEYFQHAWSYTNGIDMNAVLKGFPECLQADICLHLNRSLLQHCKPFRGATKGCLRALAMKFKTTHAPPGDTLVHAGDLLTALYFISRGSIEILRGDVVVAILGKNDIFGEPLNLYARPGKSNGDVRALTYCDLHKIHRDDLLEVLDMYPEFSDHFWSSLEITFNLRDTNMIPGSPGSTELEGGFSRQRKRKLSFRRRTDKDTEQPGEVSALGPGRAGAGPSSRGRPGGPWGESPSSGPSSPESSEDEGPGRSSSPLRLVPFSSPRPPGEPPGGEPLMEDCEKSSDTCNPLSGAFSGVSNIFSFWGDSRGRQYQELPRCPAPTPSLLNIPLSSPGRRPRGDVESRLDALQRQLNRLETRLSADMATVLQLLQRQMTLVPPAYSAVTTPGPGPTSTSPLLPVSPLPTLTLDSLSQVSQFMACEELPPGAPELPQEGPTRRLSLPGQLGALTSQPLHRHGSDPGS
Test: primary screen, population patch clamp on CHO cells stably expressing hERG; higher = less effect of the substance
Experimental: Briefly, Chinese hamster ovary (CHO) cells stably expressing the hERG channel were dislodged from tissue culture flasks and dispensed into PPC plates. […] During the recording, background leak currents were estimated by a 100 ms step to -80 mV from an initial holding potential of -70 mV and subtracted from the subsequent current measurement. The campaign was conducted in two phases using slight differences in recording protocol. […]
Among all 310,000 compounds or so, about 14,000 (4.5%) showed an effect of 50% or more. The effect is printed as a negative number. This excerpt belongs to a sample that is enriched for strong results.
measured-property: hERG current change (%, negative = inhibition) at 10uM

Below: 6 compounds and their reported hERG current change (%, negative = inhibition) at 10uM.
[[record]]
compound = "Cc1cc(C)nc(-n2nc(C)cc2NC(=O)CN2CCCC(C)C2)n1 (stereo not drawn)"
target_entity = "human ether-à-go-go-related gene (hERG) potassium channel (human, UniProt Q12809)"
reported_result = "-56%"

[[record]]
compound = "Cc1ccc2c(c1)N(C(=O)CCC(=O)NCCCN1CCOCC1)CCO2"
target_entity = "human ether-à-go-go-related gene (hERG) potassium channel (human, UniProt Q12809)"
reported_result = "5.17%"

[[record]]
compound = "CCN(CC)S(=O)(=O)c1ccc(S(=O)(=O)N2CCN(C(=O)c3ccco3)CC2)cc1"
target_entity = "human ether-à-go-go-related gene (hERG) potassium channel (human, UniProt Q12809)"
reported_result = "4.56%"

[[record]]
compound = "CCN1/C(=C\\C=C2\\C(=O)N(C)C(=S)N2C)Sc2ccccc21"
target_entity = "human ether-à-go-go-related gene (hERG) potassium channel (human, UniProt Q12809)"
reported_result = "24%"

[[record]]
compound = "CCOC(=O)Cn1c2c(c(-c3ccccc3OC)cc1=O)CCCC2"
target_entity = "human ether-à-go-go-related gene (hERG) potassium channel (human, UniProt Q12809)"
reported_result = "2.38%"

[[record]]
compound = "C/C(=N/NC(=O)CNC(=O)c1ccco1)c1ccco1"
target_entity = "human ether-à-go-go-related gene (hERG) potassium channel (human, UniProt Q12809)"
reported_result = "2.11%"


Request - read-out hERG current change (%, negative = inhibition) at 10uM | tested on human ether-à-go-go-related gene (hERG) potassium channel (human, UniProt Q12809) | compound Cc1ccc2c(c1)N(C(=O)CCC(=O)NCCCN1CC(C)CC(C)C1)CCO2 (stereo not drawn);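 also: peak tail current of the secondary pulse compared with the same well before compound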
-56.2%

Field: hERG current change (%, negative = inhibition) at 10uM (human ether-à-go-go-related gene (hERG) potassium channel (human, UniProt Q12809)). Entry: CCC1CCCCN1CC(=O)Nc1ccc2c(c1)OCCO2 (stereo not drawn)
10.6%

* * *

target: human ether-à-go-go-related gene (hERG) potassium channel (human, UniProt Q12809); experiment: primary screen, population patch clamp on CHO cells stably expressing hERG; higher = less effect of the substance;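 also: peak tail current of the secondary pulse compared with the same well before compound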
Among all 310,000 compounds or so, about 14,000 (4.5%) showed an effect of 50% or more. Effects have a minus sign here. What follows is part of a selection rich in strong results, with near analogues and random picks from the rest.
measured-property: hERG current change (%, negative = inhibition) at 10uM (%)
Answer in %, number only, no unit symbol.

Example entries and their recorded answers appear below.
[[record]]
compound = "Cn1nc(C(=O)N2CCN(c3ccccc3F)CC2)c2c1-c1ccccc1S(=O)(=O)C2"
target_entity = "human ether-à-go-go-related gene (hERG) potassium channel (human, UniProt Q12809)"
reported_result = -21.2

[[record]]
compound = "COc1c2c(cc3c1C(CC(O)Cc1ccccc1)N(C)CC3)OCO2 (centres unmarked)"
target_entity = "human ether-à-go-go-related gene (hERG) potassium channel (human, UniProt Q12809)"
reported_result = -61.3

[[record]]
compound = "O=C(Nc1ccc(CN2CCOCC2)cc1)c1cc(Cl)ccc1Cl"
target_entity = "human ether-à-go-go-related gene (hERG) potassium channel (human, UniProt Q12809)"
reported_result = 0.807

[[record]]
compound = "Cn1nc(C(=O)N2CCN(c3ccc([N+](=O)[O-])cc3)CC2)c2c1-c1ccccc1S(=O)(=O)C2"
target_entity = "human ether-à-go-go-related gene (hERG) potassium channel (human, UniProt Q12809)"
reported_result = -31.4

[[record]]
compound = "Cc1c(OCC(=O)NCC(O)c2ccccc2)ccc2c3c(c(=O)oc12)CCC3 (centres unmarked)"
target_entity = "human ether-à-go-go-related gene (hERG) potassium channel (human, UniProt Q12809)"
reported_result = -8.23

[[record]]
compound = "COc1ccccc1CN=c1c([N+](=O)[O-])nn(-c2ccc3c(c2)OCCO3)n1O"
target_entity = "human ether-à-go-go-related gene (hERG) potassium channel (human, UniProt Q12809)"
reported_result = -7.21


For COc1cccc(N2C(=O)Nc3ccc(Br)cc3C2(O)C(=O)NCCCN(C)C)c1 (centres unmarked) , what is its reported hERG current change (%, negative = inhibition) at 10uM?
19.3

What does the record list as hERG current change (%, negative = inhibition) at 10uM for `Cc1ccc(NC(=O)CSc2nnc(-c3cnccn3)n2Cc2ccco2)cc1` ?
-21.3

Quick one: hERG current change (%, negative = inhibition) at 10uM of Cn1cc(/C=N\NC(=O)C2COc3ccccc3O2)c2ccccc21 (centres unmarked) ?
9.62

For COc1ccc(CC(O)CC2c3c(cc4c(c3OC)OCO4)CCN2C)cc1.Cl (centres unmarked) , what is its reported hERG current change (%, negative = inhibition) at 10uM?
-78.9

// lookup hERG current change (%, negative = inhibition) at 10uM for `COC(=O)c1c(C)nn(-c2ccc(F)c(Cl)c2)c1-c1cc(C)on1`
-4.39

Report hERG current change (%, negative = inhibition) at 10uM for CC(=O)N1N=C(c2cccnc2)OC1c1ccc(C(C)C)cc1 (centres unmarked) please.
-30.1

Query (compound): COc1ccc2c(c1OC)C(=O)OC2C1c2c(cc3c(c2OC)OCO3)CCN1C.Cl.O (centres unmarked) ; field requested: hERG current change (%, negative = inhibition) at 10uM
-13.7

Could you tell me which hERG current change (%, negative = inhibition) at 10uM is on file for `O=C(CSc1nnnn1-c1cccc(F)c1)Nc1nc2ccccc2s1` ?
8.36
